tested on: HepG2 cells; experiment: cells; format: cell-based, human; settings: Homo sapiens, HepG2; 72 h, CellTiter-Glo
Provide the reported IC50 of each item.
Numbers only; they are read as µM.

## Task Record lookup: for HepG2 cells, what IC50 belongs to COc1ccc(NC(=O)Nc2nc3ccccc3s2)cc1 [Compound 30] ?
## Result 54

## Task Record lookup: for HepG2 cells, what IC50 belongs to COc1ccc(C(F)(F)F)cc1NC(=O)Nc1cccc(Cl)c1 [Compound 28] ?
## Result 12

## Task Record lookup: for HepG2 cells, what IC50 belongs to FC(F)(F)c1cccc(NC(=S)NCCc2ccc(Cl)cc2)c1 [Compound 26] ?
## Result 23

## Task Record lookup: for HepG2 cells, what IC50 belongs to N#Cc1ccc(NC(=O)Nc2ccc(Cl)cc2)cc1 [Compound 39] ?
## Result 6.5

## Task Record lookup: for HepG2 cells, what IC50 belongs to FC(F)(F)c1cccc(NC(=S)Nc2cccnc2)c1 [Compound 23] ?
## Result 62

----------
tested on: HepG2 cells; test: cells; type: cell-based, human; conditions: Homo sapiens, HepG2; 72 h, CellTiter-Glo
pIC50: −log10 of the molar value.
recordedEndpoint: pIC50

## Task What measured pIC50 goes with O=C(NC(=S)Nc1ccc2oc(-c3ccccc3)nc2c1)c1ccccc1 ?
## Result < 4.00

## Task What measured pIC50 goes with CNC(=O)Nc1ccc(Br)cc1 ?
## Result < 4.00

## Task What measured pIC50 goes with CC(C)c1ccc(NC(=O)Nc2ccccc2)cc1 ?
## Result 4.26

## Task What measured pIC50 goes with COc1ccc(NC(=S)Nc2ccccc2C(F)(F)F)cc1OC ?
## Result < 4.00

## Task What measured pIC50 goes with COc1ccc2nc(NC(=O)Nc3ccc(Cl)cc3)sc2c1 ?
## Result < 4.00

## Task What measured pIC50 goes with CCOc1ccc(NC(=S)Nc2ccc(OC)cc2)cc1 ?
## Result < 4.00

## Task What measured pIC50 goes with COc1ccc(NC(=S)Nc2ccc(F)cc2)cc1 ?
## Result < 4.00

## Task What measured pIC50 goes with COc1cccc(NC(=S)Nc2cccc(C(F)(F)F)c2)c1 ?
## Result 4.62

## Task What measured pIC50 goes with CNC(=S)Nc1ccccc1 ?
## Result < 4.00

## Task What measured pIC50 goes with CCCc1nnc(NC(=S)Nc2ccccc2)s1 ?
## Result < 4.00

## Task What measured pIC50 goes with COc1ccc(NC(=S)Nc2ccc(Br)cc2)cc1 ?
## Result < 4.00

## Task What measured pIC50 goes with Fc1cccc(NC(=S)Nc2ccccc2C(F)(F)F)c1 ?
## Result 4.07

## Task What measured pIC50 goes with COc1cccc(NC(=O)Nc2ccc(C(F)(F)F)cc2)c1 ?
## Result 4.96

## Task What measured pIC50 goes with CCOc1ccc(NC(=S)NC)cc1 ?
## Result < 4.00

## Task What measured pIC50 goes with CC(C)(C)c1nnc(NC(=S)Nc2ccccc2)s1 ?
## Result < 4.00

## Task What measured pIC50 goes with COc1ccc(NC(=S)Nc2ccc(C(N)=O)cc2)cc1 ?
## Result < 4.00

## Task What measured pIC50 goes with CCOc1ccc(NC(=S)Nc2ccccc2C(=O)OC)cc1 ?
## Result < 4.00

## Task What measured pIC50 goes with CC(C)(C)c1nnc(NC(=O)Nc2ccc(Cl)cc2)s1 ?
## Result < 4.00

## Task What measured pIC50 goes with CCOc1ccc2nc(NC(=S)Nc3ccccc3)sc2c1 ?
## Result 4.14

## Task What measured pIC50 goes with S=C(Nc1ccccc1)Nc1ccc(Cl)cc1 ?
## Result 4.04

## Task What measured pIC50 goes with O=C(Nc1cccc(Cl)c1)NC1CCCCC1 ?
## Result < 4.00

## Task What measured pIC50 goes with COc1cc(NC(=S)Nc2ccc(C(F)(F)F)cc2)cc(OC)c1 ?
## Result 4.31

----------
Provide the reported pIC50 of each item.
tested on: extracellular M. tuberculosis; test: microbe, parasite or virus in culture; assay type: cell-based; details: Mycobacterium tuberculosis; glucose as carbon source; read-out: Glucose IC50
pIC50 here is simply -log10 of the concentration when that concentration is written in mol/L.

## Task Record lookup: for extracellular M. tuberculosis, what pIC50 belongs to CCOc1ccc(NC(=S)Nc2ccc(OC)cc2)cc1 ?
## Result 5.14

## Task Record lookup: for extracellular M. tuberculosis, what pIC50 belongs to CCOc1ccc2nc(NC(=S)Nc3ccccc3)sc2c1 ?
## Result 4.59

## Task Record lookup: for extracellular M. tuberculosis, what pIC50 belongs to CC(C)(C)c1nnc(NC(=S)Nc2ccccc2)s1 ?
## Result 4.96
